Recorded values, source patent US20150272934A1.

Here the recorded IC50 is given for each entry.
Target: human, mouse or rat recombinant CSE (UniProt P32929)
Experiment: CSE In Vitro Assay
Settings: recombinant CSE 20 ug/ml, 50 uM PLP, DL-homocysteine substrate, 3 hours 37° C.; species of enzyme not given
Where a name gives a salt, the structure may show the parent alone.

Guide cases for IC50, answers given:
compound | tested target | IC50
C#CC[C@H](N)c1ncn[nH]1 [Example 1-4, hydrochloride] | human, mouse or rat recombinant CSE (UniProt P32929) | < 10 µM
CN(C)c1ccc(C(=O)C/C=N/Nc2nnn[nH]2)cc1 | human, mouse or rat recombinant CSE (UniProt P32929) | < 10 µM
C1CCC(=NNc2nnn[nH]2)C1 | human, mouse or rat recombinant CSE (UniProt P32929) | < 10 µM
COCCCN(N)c1nnn[nH]1 | human, mouse or rat recombinant CSE (UniProt P32929) | > 100 µM
C/C(=N\Nc1nnn[nH]1)c1ccc(N(C)C)cc1 | human, mouse or rat recombinant CSE (UniProt P32929) | < 10 µM
NCCN(N)c1nnn[nH]1 | human, mouse or rat recombinant CSE (UniProt P32929) | < 10 µM
C(=N\Nc1nnn[nH]1)/c1ccccc1 | human, mouse or rat recombinant CSE (UniProt P32929) | 10 to 100 µM
CN(N)c1noc(=O)[nH]1 [Example 2-32, hydrochloride] | human, mouse or rat recombinant CSE (UniProt P32929) | 10 to 100 µM
CN(N)c1nnn[nH]1 | human, mouse or rat recombinant CSE (UniProt P32929) | < 10 µM
NN(Cc1ccccc1)c1nnn[nH]1 | human, mouse or rat recombinant CSE (UniProt P32929) | > 100 µM

q: # query: IC50 of entry CNCCCN(N)c1nnn[nH]1
a: < 10 µM

q: Record: CN(C)CCCN(N)c1nnn[nH]1
a: 10 to 100 µM

q: // same read-out, input: C#CC[C@H](N)C(=O)NS(=O)(=O)c1ccccc1 [Example 1-8, hydrochloride]
a: 10 to 100 µM

q: Also check C#CC[C@H](N)c1nc(N)n[nH]1 [Example 1-6, hydrochloride]
a: > 100 µM
